This collection of values is drawn from paper PMC10397247.

Molecular target: T1, 4H3381-bA
T1 chain: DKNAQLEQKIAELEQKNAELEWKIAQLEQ
Experiment: two-hybrid library CCNG1;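 further: natural log of median RNA to DNA barcode read ratio; higher means stronger binding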
QUANTITY_KIND: interaction score

{"columns": ["BINDER", "QUANTITY_KIND", "MEASURED_NUMBER"],
 "data": [
  ["DKIAQLKQKIAELKQKNAELEWENAQLEQ [4H2931-bA]", "interaction score", -1.36],
  ["DKIAQLEQENAELEQKNAELKWEIAQLEQ [4H2233-bA]", "interaction score", -0.976],
  ["DKIAQLKQEIAELEQENAELKWEIAQLEQ [4H2585-bA]", "interaction score", -0.791]
]}
